target: human muscarinic M3 receptors (Homo sapiens); construct: host or cells: A9L cells; experiment: IP production in A9L cells with human M3 receptors (IPOne TR-FRET), Example 28; format: cell-based; settings: percentage of maximal stimulation by carbachol
metric: huM3/A9L Smax (%)

>>> numeric_value("Cc1noc(C2CCCN(C)C2)n1 (stereo not drawn)")
20
>>> numeric_value("Cc1noc([C@@H]2CCCNC2)n1")
47
>>> numeric_value("Cc1noc(C2CCCNC2)n1 (racemic)")
54
>>> numeric_value("Cc1noc([C@H]2CCCN[C@@H]2C)n1")
20
>>> numeric_value("Nc1noc(C2CCCNC2)n1 (stereo not drawn)")
20

====

assay: PAMPA test, Example 34; conditions: PAMPA
Consider the following molecules and their measured Papp readings.
metric: Papp (×10⁻⁶ cm/s)

>>> numeric_value("Cc1noc(C2(F)CCCNC2)n1 (stereo not drawn)")
16.3
>>> numeric_value("Cc1noc(C2=CCCN(C)C2)n1")
12.8
>>> numeric_value("CCc1noc(C2CN=CNC2)n1 (stereo not drawn)")
0.05

====

biological target: human muscarinic M3 receptors (Homo sapiens, UniProt P20309); construct: host or cells: A9L cells; assay: IP production in A9L cells with human M3 receptors (IPOne TR-FRET), Example 28; assay type: cell-based; conditions: potency relative to carbachol at its EC50, semi-quantitative
Sequence (P20309 whole entry): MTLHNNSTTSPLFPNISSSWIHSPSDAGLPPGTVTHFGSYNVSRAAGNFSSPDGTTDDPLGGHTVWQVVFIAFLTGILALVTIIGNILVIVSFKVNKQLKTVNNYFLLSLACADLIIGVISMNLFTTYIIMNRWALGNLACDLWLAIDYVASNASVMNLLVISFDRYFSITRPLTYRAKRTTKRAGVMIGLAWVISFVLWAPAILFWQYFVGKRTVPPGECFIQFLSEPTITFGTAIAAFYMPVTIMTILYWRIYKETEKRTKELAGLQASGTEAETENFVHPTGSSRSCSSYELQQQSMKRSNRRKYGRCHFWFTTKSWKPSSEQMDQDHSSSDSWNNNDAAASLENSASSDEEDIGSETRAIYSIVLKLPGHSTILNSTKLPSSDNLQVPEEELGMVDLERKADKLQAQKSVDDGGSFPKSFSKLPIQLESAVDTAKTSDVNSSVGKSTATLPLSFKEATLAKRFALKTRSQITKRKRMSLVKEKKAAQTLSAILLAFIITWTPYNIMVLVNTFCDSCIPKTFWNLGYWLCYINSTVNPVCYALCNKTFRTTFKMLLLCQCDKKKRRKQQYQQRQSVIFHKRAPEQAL
metric: huM3/A9L ED50 relative to CCh*

>>> result("Cc1noc([C@H]2CNCC[C@H]2C)n1 [Compound 22]")
"inactive"
>>> result("Cc1noc([C@H]2CC[C@H](C)NC2)n1 [Compound 19]")
"inactive"
>>> result("Cc1noc([C@H]2CCCN[C@@H]2C)n1 [Compound 25]")
"inactive"
>>> result("Cc1nsc(C2CCCNC2)n1.Cl (centres unmarked) [Compound 12a]")
"+ (+ potency 2-10x CCh)"
>>> result("Cc1noc([C@@H]2CNC[C@@H](C)C2)n1 [Compound 21]")
"inactive"
>>> result("Cc1noc(C2=CCCN(C)C2)n1 [Compound 36]")
"+ (+ potency 2-10x CCh)"
>>> result("Cc1noc(C2CCCN(C)C2)n1 (centres unmarked) [Compound 5]")
"inactive"

====

# Lookup of reported Loss at 6 hrs (%) keyed by entry
tested on: pooled male human liver microsomes; assay: Metabolism in human liver microsomes, Example 45; assay type: in vitro ADME
metric: Loss at 6 hrs (%)

>>> result("[2H]C1([2H])NC[C@@]2(c3nc(C)no3)C[C@@H]12 [Compound 122a]")
"20%"
>>> result("[2H]C([2H])([2H])c1noc(C23CNC([2H])([2H])C2C3)n1 (stereo not drawn) [Compound 136]")
"11%"
>>> result("Cc1noc(C23CNCC2C3)n1 (racemic)")
"27%"
>>> result("[2H]C([2H])([2H])c1noc(C23CNC([2H])([2H])C2C3)n1 (stereo not drawn) [Compound 137]")
"24%"
>>> result("CCCCCCOc1nsnc1C1=CCCN(C)C1 [Xanomeline, reference compound]")
"100%"
>>> result("[2H]C1([2H])NC[C@]2(c3nc(C)no3)C[C@H]12 [Compound 122b]")
"13%"
>>> result("[2H]C([2H])([2H])c1noc(C23CNC([2H])([2H])C2C3)n1 (stereo not drawn) [Compound 135]")
"26%"
>>> result("Cc1noc([C@@]23CNC[C@@H]2C3)n1 [Compound 106a]")
"50%"
>>> result("[2H]C1([2H])NCC2(c3nc(C)no3)CC12 (racemic)")
"13%"

====

Target: human muscarinic M1 receptors (Homo sapiens)
Construct: host or cells: A9L cells
Sequence (P11229 1-460): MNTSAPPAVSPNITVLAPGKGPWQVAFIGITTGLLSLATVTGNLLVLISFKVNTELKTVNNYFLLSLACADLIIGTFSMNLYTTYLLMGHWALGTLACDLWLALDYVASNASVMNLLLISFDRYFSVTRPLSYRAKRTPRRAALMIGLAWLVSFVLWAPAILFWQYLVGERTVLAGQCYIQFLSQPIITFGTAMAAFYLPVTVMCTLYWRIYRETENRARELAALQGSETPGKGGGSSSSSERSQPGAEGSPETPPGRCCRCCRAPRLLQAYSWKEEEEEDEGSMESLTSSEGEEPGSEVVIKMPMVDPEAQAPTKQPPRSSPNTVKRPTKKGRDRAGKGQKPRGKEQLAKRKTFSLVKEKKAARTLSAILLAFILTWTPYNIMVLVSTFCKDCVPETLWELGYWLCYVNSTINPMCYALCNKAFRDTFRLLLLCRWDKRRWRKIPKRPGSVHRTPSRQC
Assay: IP production in A9L cells with human M1 receptors (IPOne TR-FRET), Example 28
Assay type: cell-based
Settings: potency relative to carbachol at its EC50, semi-quantitative
metric: huM1/A9L ED50 relative to CCh*

>>> result("Cc1noc([C@H]2CNC[C@@H](C)C2)n1")
"inactive"
>>> result("CCc1noc(C2CCCNC2)n1 (centres unmarked)")
"inactive"
>>> result("Nc1noc(C2CCCNC2)n1 (centres unmarked)")
"+ (+ potency 2-10x CCh)"
>>> result("Cc1nsc(C2CCCNC2)n1.Cl (centres unmarked) [Compound 12a]")
"+ (+ potency 2-10x CCh)"
>>> result("Cc1noc([C@@H]2CNCC[C@H]2C)n1")
"inactive"
>>> result("Cc1noc([C@H]2CC[C@H](C)NC2)n1")
"inactive"

====

test system: salivary gland inositol phosphate; assay: In vivo tissue inositol phosphate signaling pathway activation, salivary gland; design: species or system Long Evans Hooded rats; conditions: rat, MCD-386 50 mg/kg, antagonist 0.3 mg/kg (FIG. 7)
metric: inhibition of salivary gland inositol phosphate response to MCD-386

>>> result("NC(=O)C(c1ccccc1)(c1ccccc1)[C@@H]1CCN(CCc2ccc3c(c2)CCO3)C1")
"less effective"
>>> result("CCN(CC)CC#CCOC(=O)C(O)(c1ccccc1)C1CCCCC1 (stereo not shown)")
"less effective"

====

Entries and their measured huM3/A9L Smax follow.
biological target: human muscarinic M3 receptors (Homo sapiens); construct: host or cells: A9L cells; format: cell-based; settings: percentage of maximal stimulation by carbachol
metric: huM3/A9L Smax (%)

>>> numeric_value("Cc1noc(C23CNCC2C3)n1 (racemic) [Compound 105]")
33
>>> numeric_value("[2H]C1([2H])NCC2(c3nc(C)no3)CC12 (racemic) [Compound 121]")
37
>>> numeric_value("[2H]C([2H])([2H])c1noc(C23CNC([2H])([2H])C2C3)n1 (centres unmarked) [Compound 136]")
36
>>> numeric_value("[2H]C1([2H])NC([2H])([2H])C2(c3nc(C)no3)CC12 (centres unmarked) [Compound 134]")
41
>>> numeric_value("[2H]C1([2H])NC[C@@]2(c3nc(C)no3)C[C@@H]12 [Compound 122a]")
44
>>> numeric_value("Cc1noc([C@@]23CNC[C@@H]2C3)n1 [Compound 106a]")
45
>>> numeric_value("Cc1noc([C@]23CNC[C@H]2C3)n1 [Compound 106b]")
42
>>> numeric_value("[2H]C([2H])([2H])c1noc(C23CNCC2C3)n1 (centres unmarked) [Compound 138]")
43
>>> numeric_value("[2H]C1([2H])NC[C@]2(c3nc(C)no3)C[C@H]12 [Compound 122b]")
28
>>> numeric_value("[2H]C([2H])([2H])c1noc(C23CNC([2H])([2H])C2C3)n1 (centres unmarked) [Compound 137]")
62
>>> numeric_value("[2H]C([2H])([2H])c1noc(C23CNC([2H])([2H])C2C3)n1 (centres unmarked) [Compound 135]")
46

====

molecular target: human muscarinic M1 receptors (Homo sapiens); construct: host or cells: A9L cells; experiment: IP production in A9L cells with human M1 receptors (IPOne TR-FRET), Example 28; assay type: cell-based; conditions: potency relative to carbachol at its EC50, semi-quantitative
metric: huM1/A9L ED50 relative to CCh*

>>> result("Cc1noc([C@H]2CCCNC2)n1")
"+ (+ potency 2-10x CCh)"
>>> result("Cc1noc(C2CCCN(C)C2)n1 (centres unmarked)")
"inactive"
>>> result("[2H]C([2H])([2H])c1noc([C@@H]2CCCNC2)n1")
"+ (+ potency 2-10x CCh)"
>>> result("Cc1noc(C2=CCCN(C)C2)n1")
"+ (+ potency 2-10x CCh)"
>>> result("Cc1noc(C2CCC(C)NC2)n1 (centres unmarked)")
"inactive"
>>> result("Cc1noc([C@@H]2CNC[C@@H](C)C2)n1")
"inactive"
>>> result("Cc1noc([C@H]2CNCC[C@H]2C)n1")
"inactive"
>>> result("Cc1noc(C2CCNC2)n1 (centres unmarked)")
"+ (+ potency 2-10x CCh)"
>>> result("[2H]C([2H])([2H])c1noc(C2CCCNC2)n1 (centres unmarked)")
"+ (+ potency 2-10x CCh)"
>>> result("Cc1noc(C2CCCNC2)n1 (racemic)")
"+ (+ potency 2-10x CCh)"
>>> result("Cc1noc([C@H]2CCCN[C@@H]2C)n1")
"inactive"
